- PROTOCOL SUMMARY: E. coli growth modulation, two-sided OD650, primary screen, E. coli filamentation project, strain DRC41, 24 h (AID 1093);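 also: MC1000 strain lacking acrAB efflux and sulA so SOS filamentation is blocked; test concentration not given here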
- MEASUREMENT SETUP: OD650, 24 h, higher = more signal, called active from +8 up or from −8 down
PROPERTY LABEL: z-score

1. COc1ccc([Si](C)(C)[C@@H]2[C@@H](CC(=O)N3Cc4ccccc4C[C@H]3CO)O[C@]3(C(=O)N(C)c4ccccc43)[C@H]2C)cc1 ... -0.0789
2. C=CC1c2cc(O)c(OC)cc2CCN1Cc1cc2c(cc1Br)OCO2 (centres undefined) ... -2
3. CC(C)(C)N1CC=CC23O[C@@H]4C=CCOC(=O)[C@@H]4[C@H]2C(=O)N(CCCCCCO)[C@@H]3C1=O (some centres undefined) ... -0.351
4. Cc1ccc(S[C@]2(C(=O)NCC(F)(F)F)CC(=O)N(Cc3ccccc3)[C@@H]2c2ccc(CO)cc2I)cc1 ... -0.161

---

- PROTOCOL SUMMARY: small-molecule microarray binders of probe aDKK1, primary screen, biochemical, biotinylated probe, 635/667 nm fluorescence (AID 1099);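 also: score merges 667nm spot fluorescence with signal to noise across triplicate slides; reference of the scale not given here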
- MEASUREMENT SETUP: higher = more signal
PROPERTY LABEL: composite z-score

1. COC(=O)c1cn(C[C@@H](Cc2ccccc2)NC(=O)N[C@H](CO)CCc2oc(C(C)=O)c(C(=O)OC)c2C(=O)OC)nn1 ... 0.067
2. C=CCOC(=O)[C@H]1[C@@H]2C(=O)O[C@@H](c3ccccc3)[C@@H](c3ccccc3)N2[C@@H](c2ccc(OCCOC(=O)[C@@H]3C[C@@H]4C(=O)N5CCC[C@H]5C(=O)N4[C@@H]3c3ccc(O)cc3)cc2)[C@]12C(=O)Nc1ccc(I)cc12 ... -0.102
3. COC(=O)[C@@]1(Cc2ccc(OC)cc2)[C@H]2c3cc(C(=O)N(C)C)n(CCO)c3C[C@H]2CN1C(=O)c1ccccc1 ... 1.14

---

- PROTOCOL SUMMARY: PSAC antagonists in infected red cells, primary screen, cell-based, P. falciparum Indochina, OD700, 18 h (AID 1157)
- MEASUREMENT SETUP: P. falciparum Indochina infected erythrocytes, osmotic lysis OD700, 18 h; higher = more signal, called active from +8 up or from −8 down
PROPERTY LABEL: z-score

1. COc1ccccc1CN1C(=O)c2ccccc2[C@@]2(Cc3ccccc3N(CC(F)(F)F)C2=O)[C@@H]1c1ccc(CO)cc1 ... 0.206
2. [N-]=[N+]=NCc1ccccc1C[C@]1(C(N)=O)N=C(c2ccc(OCCCO)cc2)O[C@H]1c1ccccc1 ... 0.913
3. COC(=O)[C@@]1(Cc2ccccc2)[C@H]2c3cc(C(=O)N(C)C)n(CCN4CNCC4=O)c3C[C@H]2CN1C(=O)c1ccccc1 ... 0.789
4. CCCCO[C@H]1C[C@H]2C(I)=C[C@@H]1C(=O)[C@]21CO1 ... -0.16
5. CO[C@]12C=C(Br)[C@@H](C[C@@H]1c1cccc(C)c1)[C@@]1(CO1)C2=O ... -0.382
6. O=C1NC(=O)C2C1C=CC(C(O)c1cccc3ccccc13)N2Nc1ccc(Cl)cc1Cl (stereo not drawn) ... 1.42
7. C=C(COC)C(=O)CC[C@@H](OC(=O)c1cccnc1)c1ccc(OCCO)cc1 ... 1.21
8. O=C1O[C@H](c2ccccc2)[C@H](c2ccccc2)N2[C@H]1[C@@H](C(=O)O)[C@]1(C(=O)Nc3ccc(C#CC4=CCCCC4)cc31)[C@H]2c1ccc(O)cc1 ... -0.451
